biological target: T1, TNF-α (UniProt P01375 77-233, limits assumed); test: competition ELISA: sample vs plate-bound TNFRI190 for TNF-α, from IC50, relative to wild-type TNFRI171
T1 construct: also called tumor necrosis factor; ligand

binder	Relative Affinity for Ligand (%)
TNFRI171-S53 (receptor, Met-TNFRI171 superlead mutant made in E. coli) MDSVCPQGKYIHPQNNSICCTKCHKGTYVYNDCPGPGQDTDCRECESGSFTAIENFLPACLSCSKCRKEMGQVEISSCTVDRDTVCGCRKNQYRHYWSENLFQCFNCSLCLNGTVHLSCQEQQNTVCTCHAGFFLRENECVSCSNCKKSLECTKLCLPQIENVKGTEDSGTT	1020%
TNFRI171-S46 (receptor, Met-TNFRI171 superlead mutant made in E. coli) MDSVCPQGKYIHPQNNSICCTKCHKGTYVYNDCPGPGQDTDCRECESGSFTAIENFLPGCLSCSKCRKEMGQVEISSCTVDRDTVCGCRKNQYRHYWSENLFQCFNCSLCLNGTVHLSCQEKQNTVCTCHAGFFLRENECVSCSNCKKSLECTKLCLPQIENVKGTEDSGTT	805%
TNFRI171-S33 (receptor, Met-TNFRI171 superlead mutant made in E. coli) MDSVCPQGKYIHPQNNSICCTKCHKGTYLYNDCPGPGQDTDCRECESGSFTAIENFLPACLSCSKCRKEMGQVEISSCTVDRDTVCGCRKNQYRHYWSENLFQCFNCSLCLNGTVHLSCQENQNTVCTCHAGFFLRENECVSCSNCKKSLECTKLCLPQIENVKGTEDSGTT	568%
TNFRI171-S31 (receptor, Met-TNFRI171 superlead mutant made in E. coli) MDSVCPQGKYIHPQNNSICCTKCHKGTYVYNDCPGPGQDTDCRECESGSFTAIENFLPACLSCSKCRKEMGQVEISSCTVDRDTVCGCRKNQYRHYWSENLFQCFNCSLCLNGTVHLSCQEKQNTVCTCHAGFFLRENECVSCSNCKKSLECTKLCLPQIENVKGTEDSGTT	563%
TNFRI171-S42 (receptor, Met-TNFRI171 superlead mutant made in E. coli) MDSVCPQGKYIHPQNNSICCTKCHKGTYLYNDCPGPGQDTDCRECESGSFTAHENFLPACLSCSKCRKEMGQVEISSCTVDRDTVCGCRKNQYRHYWSENLFQCFNCSLCLNGTVHLSCQEQQNTVCTCHAGFFLRENECVSCSNCKKSLECTKLCLPQIENVKGTEDSGTT	416%
TNFRI171-S39 (receptor, Met-TNFRI171 superlead mutant made in E. coli) MDSVCPQGKYIHPQNNSICCTKCHKGTYLYNDCPGPGQDTDCRECESGSFTAMENFLPACLSCSKCRKEMGQVEISSCTVDRDTVCGCRKNQYRHYWSENLFQCFNCSLCLNGTVHLSCQEKQNTVCTCHAGFFLRENECVSCSNCKKSLECTKLCLPQIQNVKGTEDSGTT	705%
